The reported measurements were obtained from patent US10294217B2.

# Run description: Rodent brain penetration study
# Type: in vivo, Male Wistar rats
# Condition info: male, Wistar, rat, oral; 3 mg/kg, p.o.; brain-plasma ratio; read-out: Single dose Rat Brain Penetration (Cb/Cp)
# Protocol: WO2015044072A1 patent application discloses indole derivatives as M1 PAM compounds. […] This makes these compounds less ideal for the treatment of CNS disorders. Rodent Brain Penetration Study […] Brain penetration was determined in discrete manner in rats. […] The test compounds were suitably preformulated and administered orally at (free base equivalent) 3 mg/kg. […] The concentrations of the test compounds in plasma and brain were determined using LC-MS/MS method. […]
Readout name: Kp

// query May I ask what Kp has been recorded for O=C(N[C@H]1CCNC[C@H]1F)c1cn(Cc2ccc(F)cc2)c2cccc(F)c12 (single isomer, unassigned; isomer-i) [Example 30] ?
// result 1.05

// query # input compound: O=C(N[C@H]1CCCC[C@@H]1O)c1cn(Cc2ccnc(F)c2)c2c(F)ccc(F)c12 [Example 8] ; wanted: its Kp
// result 1.1

// query # query: Kp of entry O=C(N[C@H]1CCCC[C@@H]1O)c1cn(Cc2cc(F)ncc2F)c2cccc(F)c12 [Example 11]
// result 1.59
